Recorded TGI by entry
system: NCI-H226 lung; experiment: NCI tumour cell line growth inhibition, 48 h
Readout Name: TGI (µM)

[[record]]
molecule = "N#C/C(=N/Nc1nc[nH]c1C(N)=O)C(=O)Nc1ccccc1"
assay_target = "NCI-H226 lung"
readout_name = "TGI"
sign = ">"
readout_value = 100

[[record]]
molecule = "O=[N+]([O-])O"
assay_target = "NCI-H226 lung"
readout_name = "TGI"
sign = ">"
readout_value = 100

[[record]]
molecule = "COC(OC)(c1ccccc1)C(Br)Br"
assay_target = "NCI-H226 lung"
readout_name = "TGI"
sign = ">"
readout_value = 100

[[record]]
molecule = "COC(=O)c1c(OC(C)=O)ccc2c1c1c(OC(C)=O)c3ccccc3c(OC(C)=O)c1n2C"
assay_target = "NCI-H226 lung"
readout_name = "TGI"
sign = ">"
readout_value = 100

[[record]]
molecule = "COc1ccc(CCn2c3c(c4c(O)cccc42)C(=O)c2ccccc2-3)cc1OC"
assay_target = "NCI-H226 lung"
readout_name = "TGI"
sign = ">"
readout_value = 100

[[record]]
molecule = "COc1cc(/C=N/Nc2ncnc3[nH]ncc23)ccc1O"
assay_target = "NCI-H226 lung"
readout_name = "TGI"
sign = ">"
readout_value = 25

[[record]]
molecule = "NS(=O)(=O)N(c1cc(C(F)(F)F)cc(C(F)(F)F)c1)C1CCN(Cc2ccc(F)cc2)CC1"
assay_target = "NCI-H226 lung"
readout_name = "TGI"
sign = "="
readout_value = 21.7

[[record]]
molecule = "COc1cc(-c2n[nH]nc2-c2ccc3c(c2)OCCO3)cc(OC)c1OC"
assay_target = "NCI-H226 lung"
readout_name = "TGI"
sign = "="
readout_value = 64.1

[[record]]
molecule = "O=C(O)C1[C@@H](C(=O)O)C1(Br)CBr (some centres not stated)"
assay_target = "NCI-H226 lung"
readout_name = "TGI"
sign = ">"
readout_value = 100

[[record]]
molecule = "Cc1nc2cc([N+](=O)[O-])ccc2c(NCCCN(C)C)c1C"
assay_target = "NCI-H226 lung"
readout_name = "TGI"
sign = "="
readout_value = 25.9

[[record]]
molecule = "O=C1/C(=C/c2ccc(Cl)cc2)COc2ccc(O)cc21"
assay_target = "NCI-H226 lung"
readout_name = "TGI"
sign = "="
readout_value = 7.61

[[record]]
molecule = "N#CCCOc1cccc(C2(N3CCCCC3)CCCCC2)c1"
assay_target = "NCI-H226 lung"
readout_name = "TGI"
sign = ">"
readout_value = 100

[[record]]
molecule = "CC(=O)OCC1OC(n2c(-c3ccc(C)cc3)cc(-c3ccco3)c(C#N)c2=S)C(OC(C)=O)C(OC(C)=O)C1OC(C)=O (configuration not stated)"
assay_target = "NCI-H226 lung"
readout_name = "TGI"
sign = ">"
readout_value = 100

[[record]]
molecule = "Cc1c2ccccc2cc2nc3ccccc3n12"
assay_target = "NCI-H226 lung"
readout_name = "TGI"
sign = ">"
readout_value = 10

[[record]]
molecule = "CN(C)Cc1cc(/C(=C(\\C#N)c2ccccc2)c2ccc(O)cc2)ccc1O"
assay_target = "NCI-H226 lung"
readout_name = "TGI"
sign = "="
readout_value = 56.9

[[record]]
molecule = "Cc1ccc(NC(=O)OCC(COc2ccc(Cl)cc2)OC(=O)Nc2ccc(C)cc2)cc1 (configuration not stated)"
assay_target = "NCI-H226 lung"
readout_name = "TGI"
sign = "="
readout_value = 67.9

[[record]]
molecule = "C=CN1CCN(c2ccccc2)P1(=O)Oc1ccccc1 (configuration not stated)"
assay_target = "NCI-H226 lung"
readout_name = "TGI"
sign = ">"
readout_value = 100

[[record]]
molecule = "CC(C)C(=O)OCC1CCCN2CCCCC12 (configuration not stated)"
assay_target = "NCI-H226 lung"
readout_name = "TGI"
sign = ">"
readout_value = 100

[[record]]
molecule = "c1ccc(CSc2nc(N3CCCCC3)c3cn[nH]c3n2)cc1"
assay_target = "NCI-H226 lung"
readout_name = "TGI"
sign = "="
readout_value = 44.9

[[record]]
molecule = "O=C(Oc1cccc2cccnc12)c1cc2cc(CCl)ccc2oc1=O"
assay_target = "NCI-H226 lung"
readout_name = "TGI"
sign = ">"
readout_value = 100

[[record]]
molecule = "Cc1c(C(=O)OCc2ccccc2)[n+](=O)c2ccccc2n1[O-]"
assay_target = "NCI-H226 lung"
readout_name = "TGI"
sign = "="
readout_value = 57.1

[[record]]
molecule = "O=C(O)C1(c2ccccc2)CCCNCC1 (configuration not stated)"
assay_target = "NCI-H226 lung"
readout_name = "TGI"
sign = ">"
readout_value = 100

[[record]]
molecule = "Cn1c(=O)c2nc3c4ccccc4c(=O)n(C)c3nc2n(C)c1=O"
assay_target = "NCI-H226 lung"
readout_name = "TGI"
sign = ">"
readout_value = 100

[[record]]
molecule = "O=C(O)CC(O)(c1ccccc1C(=O)O)c1cccc2ccccc12 (configuration not stated)"
assay_target = "NCI-H226 lung"
readout_name = "TGI"
sign = ">"
readout_value = 100

[[record]]
molecule = "C/C(CCn1[nH]c(=O)ccc1=O)=N\\N=C(N)N"
assay_target = "NCI-H226 lung"
readout_name = "TGI"
sign = ">"
readout_value = 100

[[record]]
molecule = "O=C(CCCn1cnc([N+](=O)[O-])n1)NCCCn1ccnc1[N+](=O)[O-]"
assay_target = "NCI-H226 lung"
readout_name = "TGI"
sign = ">"
readout_value = 100

[[record]]
molecule = "COc1ccccc1N1C(=O)/C(=C\\c2cc(OC)c(OC)c(OC)c2)SC1c1ccccc1 (configuration not stated)"
assay_target = "NCI-H226 lung"
readout_name = "TGI"
sign = ">"
readout_value = 100

[[record]]
molecule = "O=C(c1c2c(cc3c1CC1(Cc4cc5c(cc4C1)CCCC5)C3)CCCC2)C(Br)Br"
assay_target = "NCI-H226 lung"
readout_name = "TGI"
sign = "="
readout_value = 14.3

[[record]]
molecule = "CC[C@@]1(O)C[C@H](OC2CC(N(C)C)C(OC3CC(O)C(OC4CC(O)C(O)C(C)O4)C(C)O3)C(C)O2)c2c(cc3c(c2O)C(=O)c2c(O)ccc(O)c2C3=O)[C@H]1C(=O)OC (some centres not stated)"
assay_target = "NCI-H226 lung"
readout_name = "TGI"
sign = "="
readout_value = 0.203

[[record]]
molecule = "N#C/C(=C\\c1cc(F)cc(F)c1)c1ccccn1"
assay_target = "NCI-H226 lung"
readout_name = "TGI"
sign = "="
readout_value = 56.9

[[record]]
molecule = "COC(=O)/C(C#N)=C(\\Nc1ccccc1)N1CCCC1"
assay_target = "NCI-H226 lung"
readout_name = "TGI"
sign = ">"
readout_value = 100

[[record]]
molecule = "Cc1nnc(N)nc1C/C=C/C(Sc1ccc(Cl)cc1)c1ccccc1 (configuration not stated)"
assay_target = "NCI-H226 lung"
readout_name = "TGI"
sign = "="
readout_value = 4.64

[[record]]
molecule = "CS(=O)(=O)N1CC(CI)c2ccc(O)cc21 (configuration not stated)"
assay_target = "NCI-H226 lung"
readout_name = "TGI"
sign = "="
readout_value = 10.7

[[record]]
molecule = "O=C(NNC(=O)c1ccccc1O)c1ccccc1O"
assay_target = "NCI-H226 lung"
readout_name = "TGI"
sign = ">"
readout_value = 100

[[record]]
molecule = "N=[N+]=NC1C(O)C(CO)OC1n1cnc2c(N)ncnc21 (configuration not stated)"
assay_target = "NCI-H226 lung"
readout_name = "TGI"
sign = "="
readout_value = 97.4

[[record]]
molecule = "CN(C)CC1CCC(=C2CCCC2)C1=O (configuration not stated)"
assay_target = "NCI-H226 lung"
readout_name = "TGI"
sign = "="
readout_value = 32.2

[[record]]
molecule = "CS(=O)(=O)Nc1cc(-c2ccc3ncnc(Nc4ccc5c(cnn5Cc5cccc(F)c5)c4)c3c2)cnc1Cl"
assay_target = "NCI-H226 lung"
readout_name = "TGI"
sign = "="
readout_value = 4.84

[[record]]
molecule = "COc1ccc(/C=C(\\C#N)c2nc3ccccc3c(=O)[nH]2)cc1"
assay_target = "NCI-H226 lung"
readout_name = "TGI"
sign = "="
readout_value = 84.3

[[record]]
molecule = "Cc1c(-c2ccccc2)c(C#N)c2nnn(-c3ccc([N+](=O)[O-])cc3)c(=O)n12"
assay_target = "NCI-H226 lung"
readout_name = "TGI"
sign = "="
readout_value = 34

[[record]]
molecule = "COP(C)(=O)C1=CCN(C(=O)OCC[Si](C)(C)C)CC1 (configuration not stated)"
assay_target = "NCI-H226 lung"
readout_name = "TGI"
sign = ">"
readout_value = 100

[[record]]
molecule = "O=C1c2ccccc2-c2c1c(-c1ccc(O)cc1O)nc1ccc3ccccc3c21"
assay_target = "NCI-H226 lung"
readout_name = "TGI"
sign = ">"
readout_value = 100

